Hey, just so you know, these numbers are from PubChem BioAssay AID588579.

Target Or System: DNA polymerase kappa (Homo sapiens)
Method Notes: qHTS for Inhibitors of Polymerase Kappa; also: potency is read from the fitted curve at half-maximal effect
Setup Conditions: purified Pol kappa, fluorescent DNA synthesis assay, 10 min; series mostly up to 107 µM
About 2,200 (0.55%) of roughly 400,000 compounds were called active. Inconclusive results (about 1%) are left out. For the sample, actives were picked, then their nearest neighbours and some compounds at random.
Endpoint Name: Potency

Compound: c1ccc2c(Nc3ccncc3)nc(-c3ccoc3)nc2c1
Target Or System: DNA polymerase kappa (Homo sapiens)
Potency: 28.2 µM (active)

Compound: COc1cccc(-c2nc(Nc3ccncc3)c3ccccc3n2)c1
Target Or System: DNA polymerase kappa (Homo sapiens)
Potency: inactive

Compound: Cc1c(CC(=O)N2CCN(C(=O)C3COc4ccccc4O3)CC2)c(=O)oc2c(O)c(O)ccc12 (stereo not given)
Target Or System: DNA polymerase kappa (Homo sapiens)
Potency: 7.08 µM (active)

Compound: N#Cc1cccc(-c2nc3cnc(N4CCNCC4)nc3n(C3CC3)c2=O)c1
Target Or System: DNA polymerase kappa (Homo sapiens)
Potency: inactive

Compound: COc1ccc(OC)c2sc(N3CCN(C(=O)C4COc5ccccc5O4)CC3)nc12 (stereo not given)
Target Or System: DNA polymerase kappa (Homo sapiens)
Potency: inactive

Report value: Potency, system: DNA polymerase kappa (Homo sapiens), compound: `O=C(c1cnccn1)N1CCC2(CCN(Cc3cc(C(F)(F)F)cc(C(F)(F)F)c3)CC2)CC1` inactive

Report value: Potency, system: DNA polymerase kappa (Homo sapiens), compound: `Cc1noc(C)c1-c1nc(Nc2ccccc2)c2ccccc2n1` inactive

###

Target Or System: DNA polymerase kappa (Homo sapiens) (UniProt Q9UBT6)
Sequence (Q9UBT6 whole entry, looked up): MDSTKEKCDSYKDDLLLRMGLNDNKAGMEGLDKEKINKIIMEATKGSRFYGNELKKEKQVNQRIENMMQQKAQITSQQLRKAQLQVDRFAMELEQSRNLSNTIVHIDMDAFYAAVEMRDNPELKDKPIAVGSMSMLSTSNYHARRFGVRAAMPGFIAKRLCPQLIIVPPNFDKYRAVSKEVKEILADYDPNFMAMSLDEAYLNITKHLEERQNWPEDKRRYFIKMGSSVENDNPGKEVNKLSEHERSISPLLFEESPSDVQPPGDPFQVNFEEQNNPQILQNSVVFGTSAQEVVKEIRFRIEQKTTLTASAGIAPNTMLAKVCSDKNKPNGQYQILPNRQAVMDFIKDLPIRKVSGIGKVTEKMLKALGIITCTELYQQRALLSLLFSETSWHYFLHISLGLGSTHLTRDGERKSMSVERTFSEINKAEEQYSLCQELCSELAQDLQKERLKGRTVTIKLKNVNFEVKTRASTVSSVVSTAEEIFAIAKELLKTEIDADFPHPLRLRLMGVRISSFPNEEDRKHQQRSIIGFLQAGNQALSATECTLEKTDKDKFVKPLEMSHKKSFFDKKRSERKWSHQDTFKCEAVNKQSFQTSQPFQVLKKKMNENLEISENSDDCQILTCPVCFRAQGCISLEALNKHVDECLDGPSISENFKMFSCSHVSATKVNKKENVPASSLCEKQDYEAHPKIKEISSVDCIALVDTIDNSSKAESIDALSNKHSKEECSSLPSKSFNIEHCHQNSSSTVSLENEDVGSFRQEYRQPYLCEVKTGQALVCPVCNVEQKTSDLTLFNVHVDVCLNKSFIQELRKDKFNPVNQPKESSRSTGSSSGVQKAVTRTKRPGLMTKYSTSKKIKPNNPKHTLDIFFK
Method Notes: qHTS for Inhibitors of Polymerase Kappa
Setup Conditions: purified Pol kappa, fluorescent DNA synthesis assay, 10 min; series mostly up to 107 µM
Among all 400,000 compounds or so, about 2,200 (0.55%) were called active. Inconclusive results (about 1%) are left out. Calls come from the whole dose curve; as a rule, active = well fitted inhibition curve with a large enough effect; inconclusive = small, poorly fitted or top-dose-only effect, or another doubt; inactive = no such curve, though single readings can be large or run the other way. The full list was thinned out, with actives kept by preference.
Parameter call: string, one of YES = active, NO = inactive

Molecule: CC(C)c1ccc(Nc2nnc(SCC(=O)c3nnc(-c4ccccc4)o3)s2)cc1
Class: YES
--
Molecule: O=C1NN(c2ccccc2)C(=O)/C1=C/c1ccc(-c2cccc(C(=O)O)c2)o1
Class: YES

Record request — test call for `Cc1cccc(NC(=O)COC(=O)c2ccccc2OCc2cccc(Br)c2)c1` NO

Record request — test call for `Cc1c(C)n(Cc2ccc(Cl)cc2)c2ccc(C(=O)N3CCN(c4ccccc4F)CC3)cc12` NO

Record request — test call for `O=c1c(-c2ccc3c(c2)OCCO3)c(C(F)(F)F)oc2cc(O)cc(O)c12` NO

Record request — test call for `CC(=O)c1sc2nc(SCC(=O)N3CCCCC3)[nH]c(=O)c2c1C` YES

###

Target Or System: DNA polymerase kappa (Homo sapiens) (UniProt Q9UBT6)
Method Notes: qHTS for Inhibitors of Polymerase Kappa; also: potency is read from the fitted curve at half-maximal effect
Setup Conditions: purified Pol kappa, fluorescent DNA synthesis assay, 10 min; series mostly up to 107 µM
Screen size: about 400,000 compounds; about 2,200 (0.55%) were called active. Another 1% or so got no clear call; they are omitted. This is one part of a sample in which actives are shown more often than they occur.
Endpoint Name: Potency

Molecule: COc1cc(/C=C/C(=O)OCC(=O)Nc2cccc(Oc3ccccc3)c2)ccc1O
Endpoint Name: Potency
Result: inactive
//
Molecule: CCN1CCN(c2ccc(/C=C/c3ccnc4ccccc34)cc2)CC1
Endpoint Name: Potency
Result: inactive
//
Molecule: Cc1cccc(-c2nnc(SC(C)C(=O)Nc3ccccc3)n2C)c1 (stereo not given)
Endpoint Name: Potency
Result: inactive
//
Molecule: COc1ccc(-c2nc3cnc(OC)nc3n(Cc3ccc(F)cc3)c2=O)cc1
Endpoint Name: Potency
Result: inactive
//
Molecule: Cc1noc(C)c1S(=O)(=O)Nc1ccc(C(=O)O)cc1
Endpoint Name: Potency
Result: inactive

Give me measured Potency, please, for this molecule: `O=C(O)c1ccc(NS(=O)(=O)c2ccc3c(c2)C(=O)c2cc(S(=O)(=O)Nc4ccc(C(=O)O)cc4)ccc2-3)cc1` 79.4 µM (active)

Give me measured Potency, please, for this molecule: `COc1cccc(NC(=O)COC(=O)c2ccc3ccccc3n2)c1` inactive

Give me measured Potency, please, for this molecule: `COCCNc1ccnc(-c2cccc(NS(C)(=O)=O)c2)n1` inactive

Give me measured Potency, please, for this molecule: `COc1cccc(NC(=O)COC(=O)/C=C/c2ccco2)c1` 79.4 µM (active)

Give me measured Potency, please, for this molecule: `O=C(c1cc(C(F)(F)F)cc(C(F)(F)F)c1)N1CCC2(CCCN(Cc3ccncc3)C2)CC1` inactive
